Data origin: paper doi:10.1101/2024.03.08.583891v2

Assay system: NMDA receptor histamine site (NMDA(HA)R), native NMDAR of rat hippocampal synaptosomes (Rattus norvegicus, UniProt P35439+Q00960)
Sequence (Q00960 27-1482, other chains not shown): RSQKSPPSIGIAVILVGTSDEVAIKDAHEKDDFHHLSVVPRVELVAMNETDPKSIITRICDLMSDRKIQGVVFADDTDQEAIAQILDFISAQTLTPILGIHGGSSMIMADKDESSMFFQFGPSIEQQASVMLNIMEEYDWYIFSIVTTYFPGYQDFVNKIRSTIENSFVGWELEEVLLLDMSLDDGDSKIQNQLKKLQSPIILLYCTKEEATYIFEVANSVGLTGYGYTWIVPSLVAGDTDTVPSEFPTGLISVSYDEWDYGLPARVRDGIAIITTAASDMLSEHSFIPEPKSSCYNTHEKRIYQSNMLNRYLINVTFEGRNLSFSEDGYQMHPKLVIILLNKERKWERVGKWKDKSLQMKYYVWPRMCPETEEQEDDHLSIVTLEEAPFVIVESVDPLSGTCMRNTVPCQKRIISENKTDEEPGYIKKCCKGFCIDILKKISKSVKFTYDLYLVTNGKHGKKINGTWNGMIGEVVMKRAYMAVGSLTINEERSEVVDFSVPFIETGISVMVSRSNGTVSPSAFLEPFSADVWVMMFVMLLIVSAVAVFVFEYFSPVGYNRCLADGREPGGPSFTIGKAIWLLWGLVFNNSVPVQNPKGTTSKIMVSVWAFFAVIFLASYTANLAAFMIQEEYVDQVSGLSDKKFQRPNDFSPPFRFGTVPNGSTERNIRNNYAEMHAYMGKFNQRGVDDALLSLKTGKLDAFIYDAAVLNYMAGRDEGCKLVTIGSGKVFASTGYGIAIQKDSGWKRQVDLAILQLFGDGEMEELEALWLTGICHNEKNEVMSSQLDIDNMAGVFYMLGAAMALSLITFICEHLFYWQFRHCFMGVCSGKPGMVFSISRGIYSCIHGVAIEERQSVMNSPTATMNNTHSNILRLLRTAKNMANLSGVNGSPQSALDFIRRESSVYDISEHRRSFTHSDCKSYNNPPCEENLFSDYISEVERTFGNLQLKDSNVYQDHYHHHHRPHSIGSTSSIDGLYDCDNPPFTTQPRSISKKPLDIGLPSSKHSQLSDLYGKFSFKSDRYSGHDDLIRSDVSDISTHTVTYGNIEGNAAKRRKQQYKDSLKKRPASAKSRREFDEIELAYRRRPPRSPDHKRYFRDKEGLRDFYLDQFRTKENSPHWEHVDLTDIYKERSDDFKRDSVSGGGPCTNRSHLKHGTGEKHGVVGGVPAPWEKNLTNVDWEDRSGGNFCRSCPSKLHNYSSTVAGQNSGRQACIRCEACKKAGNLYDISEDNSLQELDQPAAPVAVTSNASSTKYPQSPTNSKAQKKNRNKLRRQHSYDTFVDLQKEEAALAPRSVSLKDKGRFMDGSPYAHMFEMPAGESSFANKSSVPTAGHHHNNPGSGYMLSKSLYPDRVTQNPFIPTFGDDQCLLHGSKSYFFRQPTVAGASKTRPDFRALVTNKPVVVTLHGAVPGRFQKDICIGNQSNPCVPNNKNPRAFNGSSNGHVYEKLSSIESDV
Protocol summary: tissue or organelle
Conditions: read-out: Intrinsec activity %
Observed property: Emax (%)
Reply numerically in %, unit not repeated.

| Molecule | Meas value |
| --- | --- |
| COc1cc2c(cc1OC)CC(NCC(O)c1ccc(C(F)(F)F)cc1)CC2 (stereo not shown) | 30 |

Query :: Sample COc1cc2c(cc1OC)CC(NCC(O)c1ccc(F)cc1)CC2 (stereo not shown) — what was its Emax?
Result :: 25

Query :: Sample CCCNC1CCc2ncsc2C1 (stereo not shown) — what was its Emax?
Result :: 50

Query :: Sample CCN(CC(O)c1ccc(C(F)(F)F)cc1)C1CCc2cc(OC)c(OC)cc2C1 (stereo not shown) — what was its Emax?
Result :: 30
